- assayedTarget: BRAFV600E (Homo sapiens, UniProt P15056, V600E)
- Sequence (P15056 whole entry V600E): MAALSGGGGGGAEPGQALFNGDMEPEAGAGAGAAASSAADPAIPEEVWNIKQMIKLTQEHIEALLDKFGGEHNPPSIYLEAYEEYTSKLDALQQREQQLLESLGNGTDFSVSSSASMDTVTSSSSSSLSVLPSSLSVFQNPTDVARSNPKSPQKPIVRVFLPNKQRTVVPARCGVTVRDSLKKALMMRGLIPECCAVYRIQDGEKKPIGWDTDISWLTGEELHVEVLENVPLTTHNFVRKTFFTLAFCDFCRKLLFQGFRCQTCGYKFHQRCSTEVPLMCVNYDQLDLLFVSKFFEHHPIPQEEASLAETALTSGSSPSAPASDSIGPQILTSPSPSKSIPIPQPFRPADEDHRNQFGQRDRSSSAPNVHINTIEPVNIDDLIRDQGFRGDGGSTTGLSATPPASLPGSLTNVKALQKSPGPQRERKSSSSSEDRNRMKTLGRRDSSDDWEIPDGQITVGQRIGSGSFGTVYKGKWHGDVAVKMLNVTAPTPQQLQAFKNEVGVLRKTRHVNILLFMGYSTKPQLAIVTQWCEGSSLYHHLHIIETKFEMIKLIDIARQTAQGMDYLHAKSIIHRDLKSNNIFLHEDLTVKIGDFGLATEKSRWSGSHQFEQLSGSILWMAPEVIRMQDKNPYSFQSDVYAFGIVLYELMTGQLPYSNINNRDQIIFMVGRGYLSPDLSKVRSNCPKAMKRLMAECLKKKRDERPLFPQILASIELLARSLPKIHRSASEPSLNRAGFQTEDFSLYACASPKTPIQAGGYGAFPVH
- procedureDetails: BRAFV600E kinase assay kit (Kinase-Glo Max luminescence)
parameterMeasured: IC50 (nM)
Supply the numeric figure in nM, leaving out any unit text.

Looking up COC(=O)COc1ccc(C=NNC(=O)Cn2c(-c3ccc(OC)cc3)nc3cc(Cl)c(Cl)cc32)cc1 [Compound 10h] , I see its IC50 listed as 2760

###

- System: HOP-92
- procedureDetails: NCI 60 single concentration growth inhibition
- Type: cell-based, human
- studyConditions: Homo sapiens, HOP-92, Non-small cell lung cancer, read-out: GI%
parameterMeasured: inhibition at 10 µM (%)
Supply the numeric figure in %, leaving out any unit text.

molecule	parameterMeasured	measuredNumber
COC(=O)COc1cc(C=NNC(=O)Cn2c(-c3ccc(OC)cc3)nc3cc(Cl)c(Cl)cc32)ccc1OC [Compound 10o]	inhibition at 10 µM	29.1
COC(=O)COc1cccc(C=NNC(=O)Cn2c(-c3ccc(OC)cc3)nc3cc(Cl)c(Cl)cc32)c1 [Compound 10g]	inhibition at 10 µM	5.5
COc1ccc(C=NNC(=O)Cn2c(-c3ccc(OC)cc3)nc3cc(Cl)c(Cl)cc32)cc1 [Compound 10d]	inhibition at 10 µM	10.9

Looking up COc1ccc(-c2nc3cc(Cl)c(Cl)cc3n2CC(=O)NN=Cc2cccc(O)c2)cc1 [Compound 10a] , I see its inhibition at 10 µM listed as 23.8

###

- System: ACHN
- procedureDetails: NCI 60 single concentration growth inhibition
- Assay type: cell-based, human
- studyConditions: Homo sapiens, Renal cancer, read-out: GI%
Parameter: inhibition at 10 µM. Scope: all listed entries.
Supply the numeric figure in %, leaving out any unit text.

Some entries whose results are on file:
compound	unitOfMeasurement	inhibition at 10 µM
COc1ccc(-c2nc3cc(Cl)c(Cl)cc3n2CC(=O)NN=Cc2ccc(O)cc2)cc1 [Compound 10b]	%	33.4
CCOC(=O)C(C)Oc1ccc(C=NNC(=O)Cn2c(-c3ccc(OC)cc3)nc3cc(Cl)c(Cl)cc32)cc1 (centres unmarked) [Compound 10j]	%	18

Looking up COC(=O)COc1ccc(C=NNC(=O)Cn2c(-c3ccc(OC)cc3)nc3cc(Cl)c(Cl)cc32)cc1OC [Compound 10p] , I see its inhibition at 10 µM listed as 95.2

###

- assayedTarget: FGFR-1 (Homo sapiens, UniProt P11362)
- Sequence (P11362 22-822): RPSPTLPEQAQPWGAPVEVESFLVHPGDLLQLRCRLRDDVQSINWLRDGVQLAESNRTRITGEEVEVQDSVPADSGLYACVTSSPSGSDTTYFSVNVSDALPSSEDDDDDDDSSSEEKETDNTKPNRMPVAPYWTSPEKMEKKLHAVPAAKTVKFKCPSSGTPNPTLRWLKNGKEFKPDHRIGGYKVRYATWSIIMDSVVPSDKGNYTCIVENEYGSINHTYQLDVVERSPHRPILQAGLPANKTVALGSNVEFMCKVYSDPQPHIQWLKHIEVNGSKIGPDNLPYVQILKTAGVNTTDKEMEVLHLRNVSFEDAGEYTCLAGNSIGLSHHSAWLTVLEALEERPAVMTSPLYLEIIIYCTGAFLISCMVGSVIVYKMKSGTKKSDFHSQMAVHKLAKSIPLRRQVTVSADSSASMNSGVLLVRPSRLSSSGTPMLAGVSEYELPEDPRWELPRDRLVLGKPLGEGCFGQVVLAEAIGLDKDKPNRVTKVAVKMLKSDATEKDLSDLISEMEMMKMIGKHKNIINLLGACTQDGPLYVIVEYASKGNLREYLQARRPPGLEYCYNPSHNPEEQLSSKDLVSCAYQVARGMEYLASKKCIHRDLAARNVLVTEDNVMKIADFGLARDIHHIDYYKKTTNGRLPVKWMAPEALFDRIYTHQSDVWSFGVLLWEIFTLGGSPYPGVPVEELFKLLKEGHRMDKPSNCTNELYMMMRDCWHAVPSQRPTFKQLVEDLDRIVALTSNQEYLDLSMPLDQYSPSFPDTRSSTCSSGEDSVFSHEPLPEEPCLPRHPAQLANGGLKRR
- procedureDetails: FGFR-1 kinase assay (Kinase-Glo Max luminescence)
parameterMeasured: IC50

Looking up COC(=O)COc1ccc(C=NNC(=O)Cn2c(-c3ccc(OC)cc3)nc3cc(Cl)c(Cl)cc32)cc1 [Compound 10h] , I see its IC50 listed as > 10 µM

###

- assayedTarget: BRAFWT (Homo sapiens, UniProt P15056)
- Construct: purchased BPS Biosciences 78316
- Sequence (P15056 whole entry): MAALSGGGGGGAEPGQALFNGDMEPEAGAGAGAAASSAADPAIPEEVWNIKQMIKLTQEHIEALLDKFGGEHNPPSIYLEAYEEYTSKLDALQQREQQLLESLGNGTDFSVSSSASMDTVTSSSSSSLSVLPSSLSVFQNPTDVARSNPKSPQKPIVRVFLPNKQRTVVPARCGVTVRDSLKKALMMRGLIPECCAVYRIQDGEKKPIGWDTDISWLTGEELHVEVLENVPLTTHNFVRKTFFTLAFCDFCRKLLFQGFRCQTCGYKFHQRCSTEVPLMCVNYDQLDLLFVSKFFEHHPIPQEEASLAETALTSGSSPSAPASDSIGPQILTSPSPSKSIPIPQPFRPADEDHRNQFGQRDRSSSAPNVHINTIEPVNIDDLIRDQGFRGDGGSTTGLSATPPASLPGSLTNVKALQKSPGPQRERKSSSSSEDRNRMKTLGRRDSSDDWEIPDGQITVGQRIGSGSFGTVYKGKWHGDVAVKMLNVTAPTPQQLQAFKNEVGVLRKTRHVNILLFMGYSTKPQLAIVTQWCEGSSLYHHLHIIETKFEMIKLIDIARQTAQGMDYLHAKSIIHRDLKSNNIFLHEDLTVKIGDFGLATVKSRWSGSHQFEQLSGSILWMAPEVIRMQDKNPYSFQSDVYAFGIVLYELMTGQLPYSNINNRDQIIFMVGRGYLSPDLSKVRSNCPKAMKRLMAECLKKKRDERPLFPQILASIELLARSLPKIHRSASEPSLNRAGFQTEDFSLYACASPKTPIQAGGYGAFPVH
- procedureDetails: BRAFWT kinase assay kit (Kinase-Glo Max luminescence)
- Assay type: biochemical
- studyConditions: BRAFwt, 10 µM; mean of two independent experiments ± SD
1 means recorded inhibition at 10 µM is 70% or above; 0 means it is below 70%.

Answered cases to consult:
molecule	assignedCategory
COC(=O)COc1ccc(C=NNC(=O)Cn2c(-c3ccc(OC)cc3)nc3cc(Cl)c(Cl)cc32)cc1 [Compound 10h]	1
COc1ccc(-c2nc3cc(Cl)c(Cl)cc3n2CC(=O)NN=Cc2ccc(OC)c(O)c2)cc1 [Compound 10k]	0
COc1ccc(-c2nc3cc(Cl)c(Cl)cc3n2CC(=O)NN=Cc2cccc(OCC(=O)O)c2)cc1 [Compound 10e]	0

Consider the additional molecule presented here.
Ask: Is inhibition at 10 µM for COC(=O)COc1cc(C=NNC(=O)Cn2c(-c3ccc(OC)cc3)nc3cc(Cl)c(Cl)cc32)ccc1OC [Compound 10o] at or above 70%?
Reply: 0
